EXPERIMENTAL_SYSTEM: Gal4-HNF4α (human HNF4α LBD) (Homo sapiens, UniProt P41235)
Construct: uniprot entry: P41235-1, residues 142-377; expressed in transfected cells; host or cells: HEK293T
Sequence (P41235 142-377): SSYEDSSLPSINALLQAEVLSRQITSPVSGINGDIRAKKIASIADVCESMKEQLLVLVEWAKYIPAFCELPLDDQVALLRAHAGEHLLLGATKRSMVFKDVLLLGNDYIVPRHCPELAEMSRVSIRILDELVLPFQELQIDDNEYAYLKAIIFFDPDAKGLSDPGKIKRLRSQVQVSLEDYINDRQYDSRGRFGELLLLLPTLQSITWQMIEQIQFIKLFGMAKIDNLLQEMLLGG
ASSAY_EXPLANATION: Hybrid Gal4-HNF4α reporter gene assay in transiently transfected HEK293T cells
Format: cell-based
ASSAY_SETUP: Table S1, primary screening, 50 µM
This listing pairs molecules with measured HNF4a-screening_activity_(mean_of_n=2).
OBSERVATION_TYPE: HNF4a-screening_activity_(mean_of_n=2)

1) Oc1ccccc1N1CCNCC1 = 0.9708
2) COc1cc2c(cc1OC)CC(=O)NCC2 = 1.019
3) O=C1CCOc2ccccc21 = 0.9806

Where do the numbers come from? From paper PMC7660650.
